assay system: HumRadA2 (humanised, monomeric RadA from Pyrococcus furiosus) (Pyrococcus furiosus) (UniProt O74036)
experiment: ITC; peptide (2.5-5 mM) titrated into HumRadA2 (64-83 μM) at 25 °C, MicroCal iTC200, 200 mM Tris pH 7.5, 100 mM NaCl; single-site model, stoichiometry fixed as 1.0 for weak-binding ligands; low c-value conditions
observed property: pKd
Just the number, please; pKd means minus log10 of the concentration in mol/L.

What value of measured pKd is listed for Ac-WHPA-NH2 [WHPA tetrapeptide] ?
3.16
